- experimentalSystem: DHODH (Homo sapiens (Human), UniProt Q02127)
- Sequence (Q02127 whole entry): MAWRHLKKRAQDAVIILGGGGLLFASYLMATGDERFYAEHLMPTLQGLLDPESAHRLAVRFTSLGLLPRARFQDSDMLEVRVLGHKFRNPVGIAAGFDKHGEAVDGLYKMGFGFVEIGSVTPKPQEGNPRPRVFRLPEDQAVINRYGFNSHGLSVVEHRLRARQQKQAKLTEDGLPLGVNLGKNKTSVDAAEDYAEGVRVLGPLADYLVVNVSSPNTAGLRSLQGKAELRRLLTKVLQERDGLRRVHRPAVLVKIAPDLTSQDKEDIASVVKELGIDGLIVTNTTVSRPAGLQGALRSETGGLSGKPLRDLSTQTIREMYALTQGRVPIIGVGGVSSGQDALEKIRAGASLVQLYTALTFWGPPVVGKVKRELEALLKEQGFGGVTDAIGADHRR
- experimentSummary: DHODH activity assay (coupled enzyme assay, DCIP reduction, absorbance at 610 nm)
- Format: biochemical
- condition: compound at 10 uM; read-out: inh @ 10 uM hDHODH (%)
reportedMetric: inhibition at 10 µM (%)
Kindly answer with a numeric value in %, unit omitted.

Guide cases for inhibition at 10 µM, answers given:
• O=Cc1ccc(Oc2ccc(-c3ccc(-c4nc5c(C(=O)O)cccc5[nH]4)cc3)cc2)cc1 [I180] = 30.5
• O=C(O)c1cccc2nc(-c3cccc4ccccc34)[nH]c12 [I39] = 19.9
• O=C(O)c1cccc2nc(-c3c(F)c(F)c(-c4cccc(F)c4)c(F)c3F)[nH]c12 [I125] = 97
• O=C(O)c1cc(Cl)cc2nc(-c3ccc(-c4ccccc4)cc3)[nH]c12 [I35] = 92.9

Challenge: I would be grateful if you could share the reported inhibition at 10 µM for O=C(O)c1cc(Cl)cc2[nH]c(-c3ccc(-c4ccccc4F)cc3)nc12 [I45] .
Response given: 92.2

Challenge: Fill blank: measured inhibition at 10 µM of the molecule Cc1cc(C(=O)O)c2[nH]c(-c3ccc(-c4ccccc4)nc3)nc2c1 [I75] is ____.
Response given: 82.4

Challenge: Could you share which inhibition at 10 µM value was measured for O=C(O)c1cccc2[nH]c(-c3c(F)c(F)c(-c4cccc(OC(F)(F)F)c4)c(F)c3F)nc12 [I148] ?
Response given: 103

Challenge: What value of inhibition at 10 µM has been recorded for this entry: Cc1cc(C(=O)O)c2nc(-c3ccc(-c4cccc(NC(=O)C5CCCN5)c4)cc3)[nH]c2c1 (stereo not shown) [I150]
Response given: 30.5

Challenge: Would you mind telling me what inhibition at 10 µM value was observed for COC(=O)c1cc(C)cc2[nH]c(-c3c(F)c(F)c(-c4ccccc4)c(F)c3F)nc12 [I176] ?
Response given: 45

Challenge: # lookup: inhibition at 10 µM of O=C(O)c1cccc2[nH]c(-c3ccc(-c4ccccc4F)cc3)nc12 [I15]
Response given: 96.4

Challenge: Request the reported inhibition at 10 µM associated with O=Cc1ccc(-c2ccc(-c3nc4c(C(=O)O)cccc4[nH]3)cc2)cc1 [I181]
Response given: 40.4

Challenge: So what does the record say about inhibition at 10 µM for Cc1cc(C(=O)O)c2[nH]c(-c3cc4ccccc4[nH]3)nc2c1 [I40] ?
Response given: 23.3

Challenge: Which value of inhibition at 10 µM has been reported for Cc1cc(C(=O)O)c2nc(-c3ccc(-c4ccccc4)cc3)[nH]c2c1 [I14] in the records?
Response given: 102

====

- experimentalSystem: DHODH (Homo sapiens (Human), UniProt Q02127)
- experimentSummary: DHODH activity assay (coupled enzyme assay, DCIP reduction, absorbance at 610 nm)
- Assay type: biochemical
- condition: compound at 10 uM; read-out: inh @ 10 uM hDHODH (%)
# inhibition at 10 µM per record follows
Provide the reading as a plain figure in %.

Sample answers from the record:
- Cc1cc(C(=O)O)c2[nH]c(-c3ccc(-c4ccc(CNC(C)C)cc4)cc3)nc2c1 [I160]: 57.4
- Cc1cc(C(=O)O)c2nc(-c3c(F)c(F)c(-c4ccc(F)cc4)c(F)c3F)[nH]c2c1 [I134]: 88.1
- O=C(O)c1cccc2[nH]c(-c3ccc(-c4ccsc4)cc3)nc12 [I22]: 57.3
- Cc1cc(C(=O)O)c2c(c1)nc(-c1c(F)c(F)c(-c3ccc(O)cc3)c(F)c1F)n2CCO [I94]: 89.7

Challenge: Requested read-out: inhibition at 10 µM. Entry: O=C(O)c1cccc2[nH]c(-c3cccc(Oc4ccccc4)c3)nc12 [I9]
Response given: 64
